From: patent US20230357429A1

Target: T1, TBD-22 (HC D109A)
T1 construct: Fab; also called HC D109A mutant
T1 sequence (VH, as listed by the source, chain 1 of 2): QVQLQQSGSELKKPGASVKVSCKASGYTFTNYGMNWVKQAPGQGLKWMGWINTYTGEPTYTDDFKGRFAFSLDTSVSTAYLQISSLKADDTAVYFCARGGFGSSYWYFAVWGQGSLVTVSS
T1 sequence (VL, as listed by the source, chain 2 of 2): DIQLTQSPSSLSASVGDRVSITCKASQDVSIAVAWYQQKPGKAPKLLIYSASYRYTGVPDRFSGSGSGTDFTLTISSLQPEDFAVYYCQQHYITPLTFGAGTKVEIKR
Test: competition ELISA, peptide vs Fab binding to captured biotin-TROP2
Where no end group is shown, it is not given here.
# reported IC50; entries follow
Give just the number in nM; leave the unit off.

VDFCELYRWPICNS (cysteine pairing not given here; also: biotinylated (site not given here)) [Peptide-13] = 200
VDFCGLYHWPICYQ (cysteine pairing not given here; also: biotinylated, site not given here) [Peptide-8] = 20
PDFCAVYRWPICYQ (cysteine pairing not given here; also: biotinylated (site not given here)) [Peptide-12] = 70

Next up:
Request: // lookup IC50 for IDFCLIYNWPVCDT (cysteine pairing not given here; also: biotinylated, site not given here) [Peptide-6]
Result: 90
